# Target desc: Estrogen receptor beta (Homo sapiens)
# Sequence (Q92731 whole entry): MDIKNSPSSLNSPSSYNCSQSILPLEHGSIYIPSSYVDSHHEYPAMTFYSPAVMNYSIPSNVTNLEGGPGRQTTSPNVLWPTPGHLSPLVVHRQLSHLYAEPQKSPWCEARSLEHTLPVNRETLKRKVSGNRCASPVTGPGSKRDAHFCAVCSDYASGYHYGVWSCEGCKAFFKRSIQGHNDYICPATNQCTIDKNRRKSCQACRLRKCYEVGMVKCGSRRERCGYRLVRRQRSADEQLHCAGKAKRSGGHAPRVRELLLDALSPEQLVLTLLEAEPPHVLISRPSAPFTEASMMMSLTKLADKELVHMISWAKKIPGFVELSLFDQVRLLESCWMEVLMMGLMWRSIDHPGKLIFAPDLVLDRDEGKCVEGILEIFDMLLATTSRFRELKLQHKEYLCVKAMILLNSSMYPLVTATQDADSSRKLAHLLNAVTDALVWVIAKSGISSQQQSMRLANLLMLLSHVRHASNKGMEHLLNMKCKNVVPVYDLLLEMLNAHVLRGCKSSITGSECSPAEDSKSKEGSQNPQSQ
# Test summary: Antagonist activity at ERbeta (unknown origin) expressed in HEK293T cells assessed as inhibition of 17beta-estradiol stimulated transcriptional activity after 24 hrs by dual luciferase reporter gene assay
pIC50: −log10 of the molar value.
Label satisfied for high-side pIC50 (at or above 6) and not satisfied for low-side pIC50 (below it).

Query: In plain terms: is recorded pIC50 at least 6 for Cc1cc(O)ccc1-c1ccc(-c2ccc(OCCN3CCCC3)cc2C)[se]1 ?
Response: satisfied

Query: In plain terms: is recorded pIC50 at least 6 for Oc1ccc(-c2c[se]cc2-c2ccc(OCCN3CCCC3)cc2)cc1 ?
Response: satisfied

Values were extracted from ChEMBL document CHEMBL4261529.
